In this section, each of the molecules is paired with its reported Solubility in water.
- protocolText: Solubility of mediator in water, evaluated visually
- Assay type: physicochemical
- measurementParameters: Table 2
measuredAttribute: Solubility in water (mM)

> print(dat)
                       smilesrepresentation    measuredattribute  unitannotation  reading
1  O=C1C(=O)c2cc(-c3ccc(S(=O)(=O)[O-])cc3)ccc2-c2ccccc21.[Na+]  Solubility in water              mM       20
2  O=C([O-])c1ccc(-c2ccc3c(c2)C(=O)C(=O)c2ccccc2-3)cc1.[Na+]  Solubility in water              mM        5
3  O=C([O-])c1cc(C(=O)[O-])cc(-c2ccc3c(c2)C(=O)C(=O)c2ccccc2-3)c1.[Na+].[Na+]  Solubility in water              mM       50
4  O=C1C(=O)c2cc([N+](=O)[O-])ccc2-c2ccccc21  Solubility in water              mM        1
5  O=C(NCCS(=O)(=O)[O-])c1ccc(-c2ccc3c(c2)C(=O)C(=O)c2ccccc2-3)cc1.[Na+]  Solubility in water              mM       20

----------
- protocolText: Redox potential by cyclic voltammetry (glassy carbon working electrode, Ag|AgCl reference)
- Format: physicochemical
- measurementParameters: 1 mM in 100 mM phosphate buffer pH 7; vs Ag|AgCl; sweep 0.1 V/second
measuredAttribute: Eox (V), potential value at the peak oxidation current

> print(dat)
                                   compound  reading
1  O=C1C(=O)c2cc(-c3ccc(S(=O)(=O)[O-])cc3)ccc2-c2ccccc21.[Na+] [compound H′]  −0.14 V
2  O=C(NCCS(=O)(=O)[O-])c1ccc(-c2ccc3c(c2)C(=O)C(=O)c2ccccc2-3)cc1.[Na+] [compound I′]  −0.14 V
3  O=C1C(=O)c2cc(S(=O)(=O)[O-])ccc2-c2ccc(S(=O)(=O)[O-])cc21.[Na+].[Na+]  −0.06 V
4  O=C1C(=O)c2cc([N+](=O)[O-])ccc2-c2ccccc21 [compound A]  −0.10 V
5  O=C1C(=O)c2cc(S(=O)(=O)[O-])ccc2-c2ccccc21.[Na+]  −0.12 V
6  O=C([O-])c1ccc(-c2ccc3c(c2)C(=O)C(=O)c2ccccc2-3)cc1.[Na+] [compound I]  −0.14 V
7  Nc1ccc2c(c1)C(=O)C(=O)c1ccccc1-2 [compound B]  −0.19 V
8  O=C([O-])c1cc(C(=O)[O-])cc(-c2ccc3c(c2)C(=O)C(=O)c2ccccc2-3)c1.[Na+].[Na+] [compound J]  −0.15 V

----------
In this section, each of the compounds is paired with its reported Ered (V), potential value at the peak reduction current.
- protocolText: Redox potential by cyclic voltammetry (glassy carbon working electrode, Ag|AgCl reference)
- Type: physicochemical
- measurementParameters: 1 mM in 100 mM phosphate buffer pH 7; vs Ag|AgCl; sweep 0.1 V/second
- Description: Potassium ferricyanide and sodium 9,10-phenanthrenequinone-2-sulfonate were each dissolved in an amount of 1 mM in a 100 mM phosphate buffer (pH 7), to prepare a potassium ferricyanide aqueous solution and a sodium 9,10-phenanthrenequinone-2-sulfonate aqueous solution. These aqueous solutions were used to measure the redox potential by cyclic voltammetry for potassium ferricyanide and sodium 9,10-phenanthrenequinone-2-sulfonate. […]
measuredAttribute: Ered (V), potential value at the peak reduction current

> print(dat)
                       smilesrepresentation  reading
1          Nc1ccc2c(c1)C(=O)C(=O)c1ccccc1-2    −0.23
2  O=C([O-])c1ccc(-c2ccc3c(c2)C(=O)C(=O)c2ccccc2-3)cc1.[Na+]    −0.22
3  O=C(NCCS(=O)(=O)[O-])c1ccc(-c2ccc3c(c2)C(=O)C(=O)c2ccccc2-3)cc1.[Na+]    −0.22
4  O=C([O-])c1cc(C(=O)[O-])cc(-c2ccc3c(c2)C(=O)C(=O)c2ccccc2-3)c1.[Na+].[Na+]    −0.23
5  O=C1C(=O)c2cc(S(=O)(=O)[O-])ccc2-c2ccccc21.[Na+]    −0.18
6  O=C1C(=O)c2cc(-c3ccc(S(=O)(=O)[O-])cc3)ccc2-c2ccccc21.[Na+]    −0.21
7  O=C1C(=O)c2cc([N+](=O)[O-])ccc2-c2ccccc21    −0.13
8  O=C1C(=O)c2cc(S(=O)(=O)[O-])ccc2-c2ccc(S(=O)(=O)[O-])cc21.[Na+].[Na+]    −0.18

----------
- protocolText: Redox potential by cyclic voltammetry (glassy carbon working electrode, Ag|AgCl reference)
- Assay type: physicochemical
- measurementParameters: vs Ag|AgCl; average of Ered and Eox
In this section, each of the compounds is paired with its reported E0′ (V) [(Ered + Eox)/2], redox potential.
measuredAttribute: E0′ (V) [(Ered + Eox)/2], redox potential

> print(dat)
                       smilesrepresentation  unitannotation  reading
1  O=C([O-])c1ccc(-c2ccc3c(c2)C(=O)C(=O)c2ccccc2-3)cc1.[Na+]               V    −0.18
2  O=C1C(=O)c2cc(S(=O)(=O)[O-])ccc2-c2ccccc21.[Na+]               V    −0.15
3          Nc1ccc2c(c1)C(=O)C(=O)c1ccccc1-2               V    −0.21
4  O=C1C(=O)c2cc(-c3ccc(S(=O)(=O)[O-])cc3)ccc2-c2ccccc21.[Na+]               V    −0.18
5  O=C([O-])c1cc(C(=O)[O-])cc(-c2ccc3c(c2)C(=O)C(=O)c2ccccc2-3)c1.[Na+].[Na+]               V    −0.19
6  O=C1C(=O)c2cc([N+](=O)[O-])ccc2-c2ccccc21               V    −0.12
7  O=C1C(=O)c2cc(S(=O)(=O)[O-])ccc2-c2ccc(S(=O)(=O)[O-])cc21.[Na+].[Na+]               V    −0.12
8  O=C(NCCS(=O)(=O)[O-])c1ccc(-c2ccc3c(c2)C(=O)C(=O)c2ccccc2-3)cc1.[Na+]               V    −0.18

Just for reference, patent US11639912B2 is where these values come from.
